test: qHTS of pediatric cancer cell lines to identify multiple opportunities for drug repurposing: Confirmatory screen for MG 63 (6-TG R) cells (AID 1347119); also: nearly all actives have a fitted effect of over 55% in size
testSettings: MG-63 (6-TG resistant) osteosarcoma viability; series mostly up to 45.9 µM
Inconclusive results are not listed. Calls of active or inactive are those of the source. Calls follow the shape of the dose curve; as a rule, active = well fitted cell-killing curve with a large enough effect; inconclusive = small, poorly fitted or top-dose-only effect, or effect the other way; inactive = no such curve, though single readings can be large or run the other way.
Outcome codes: active, inactive

molecule: CC(C(C)N1CC(=O)NC(=O)C1)N1CC(=O)NC(=O)C1 (centres undefined)
labelClass: active

molecule: C[C@H](NCc1ccc2c(c1)nc(NC(=O)c1ccc(-c3cn[nH]c3)s1)n2CCc1ccccc1)C(C)(C)C
labelClass: active

molecule: C=CC(=O)Nc1ccc2ncnc(Nc3ccc(OCc4cccc(F)c4)c(Cl)c3)c2c1
labelClass: active

molecule: CC(=O)N1CCN(c2ccc(OCc3nn(C)c(C)c3-c3cccc4c(CCCOc5cccc6ccccc56)c(C(=O)O)n(Cc5cccnc5)c34)cc2)CC1
labelClass: inactive

----------
test: qHTS of pediatric cancer cell lines to identify multiple opportunities for drug repurposing: Primary screen for SK-N-MC cells (AID 1347093); also: potency is read from the fitted curve at half-maximal effect
testSettings: SK-N-MC viability, CellTiter-Glo luminescence, 48 h; series mostly up to 46 µM
Results filed as inconclusive are left out. Activity calls are given as the source filed them. Calls come from the whole dose curve; as a rule, active = well fitted cell-killing curve with a large enough effect; inconclusive = small, poorly fitted or top-dose-only effect; inactive = no such curve, though single readings can be large or run the other way.
measure: Potency

compound: OCCN1C[C@H](O)[C@@H](O)[C@H](O)[C@@H]1CO
valueObserved: inactive

compound: NC(=O)Nc1cc(-c2ccc(CN3CCOCC3)cc2)sc1C(N)=O
valueObserved: 105 nM (active)

compound: C=CC(=O)N1CCc2ccc(-n3c(=O)ccc4cnc5ccc(-c6cnn(C)c6)cc5c43)cc21
valueObserved: 1480 nM (active)

compound: CN1[C@H]2CC(OC(=O)[C@@H](CO)c3ccccc3)C[C@H]1[C@H]1O[C@H]12 (some centres undefined)
valueObserved: inactive

compound: CNC(=O)c1cccc(-c2ccc3c(N4CCOC[C@H]4C)nc(N4CCOC[C@H]4C)nc3n2)c1
valueObserved: 14.8 nM (active)

compound: C=CC[C@@H]1C=C(C)C[C@H](C)C[C@H](OC)[C@H]2O[C@@](O)(C(=O)C(=O)N3CCCC[C@H]3C(=O)O[C@H](C(C)=C[C@@H]3CC[C@H](O)[C@H](OC)C3)[C@@H](C)[C@@H](O)CC1=O)[C@@H](C)C[C@@H]2OC
valueObserved: 8330 nM (active)

compound: C=C(C)[C@@H]1CC[C@]2(C)CC[C@]3(C)[C@H](CC[C@@H]4[C@@]5(C)CC[C@H](O)C(C)(C)[C@H]5CC[C@]43C)[C@@H]12
valueObserved: inactive

compound: C=Cc1c(C)c2cc3nc(cc4[nH]c(cc5nc(cc1[nH]2)C(C)=C5CCC(=O)O)c(CCC(=O)OC)c4C)[C@@]1(C)C3=CC=C(C(=O)OC)[C@H]1C(=O)OC
valueObserved: 59 nM (active)

compound: NC[C@H]1O[C@H](O[C@H]2[C@@H](O)[C@@H](O[C@H]3O[C@H](CO)[C@@H](O)[C@H](N)[C@@H]3O)[C@H](N)C[C@@H]2N)[C@H](N)C[C@H]1O
valueObserved: inactive

compound: CC(=O)OCC(=O)[C@@]12N=C(C)O[C@H]1C[C@H]1[C@@H]3CCC4=CC(=O)C=C[C@]4(C)[C@@H]3[C@@H](O)C[C@@]12C
valueObserved: inactive

compound: CC(C)(O)[C@H]1CC[C@@](C)([C@H]2[C@@H](O)C[C@@]3(C)[C@@H]4C[C@H](O[C@@H]5O[C@H](CO)[C@@H](O)[C@H](O)[C@@H]5O)[C@H]5C(C)(C)[C@@H](O[C@@H]6OC[C@@H](O)[C@H](O)[C@@H]6O)CC[C@@]56C[C@@]46CC[C@]23C)O1
valueObserved: inactive

compound: COC1=C(OC)C(=O)C(CC=C(C)CCC=C(C)CCC=C(C)CCC=C(C)CCC=C(C)CCC=C(C)CCC=C(C)CCC=C(C)CCC=C(C)CCC=C(C)C)=C(C)C1=O
valueObserved: inactive

compound: COc1cc(C[C@@H](CO)[C@H](CO)Cc2ccc(O)c(OC)c2)ccc1O
valueObserved: 209 nM (active)

compound: COc1ccc2c(c1OC)C(=O)OC2[C@H]1c2c(cc3c(c2OC)OCO3)CCN1C (some centres undefined)
valueObserved: 83.3 nM (active)
